// provenance: paper PMC12102759

Molecular target: SARS-CoV-2 NSP3 UBl1 domain (SARS-CoV-2, UniProt P0DTD1 819-925)
Test: fluorescence polarisation
Details: both partners purified
metric: pKd
Scale: pKd equals -log10([C]), with [C] in mol/L.

**Query** # pKd lookup, item SDEGALLDQLYLALRN (FITC on the N-terminus) [FITC-labelled NCOA2 peptide 1074-1089]
**Result** 4.17
